experimentalSystem: T1, full length human GLP-1R with N-terminal FLAG tag and C-terminal GFP tag, on CHO cells (human, UniProt P43220 24-463)
T1 construct: whole, on cells; the cell line itself is tied to UniProt P43220; also called FLAG-GLP-1R-GFP; CHO-GLP-1R
test: flow cytometry, expressing minus parent CHO cells
Recorded Subtraction values for a group of binders are listed next.
propertyMeasured: Subtraction

- binder: "GLP1R-222-052 (antibody, V domains shown, IgG) VH: QVQLVESGGGVVQPGRSLRLSCAASGFTFNNYPMHWVRQAPGKGLEWVAVISYDESNKYYADSVKGRFTISRDNSKNTLYLQMNSLRAEDTAVYYCAKHMSMQEGAVTGGGQAAKEFIAWLVKGRVRADLVGDAFDVWGQGTLVTVSS VL: QSVLTQPPSVSAAPGQKVTISCSGSSSNIGKRSVSWYQQLPGTAPKLLIYDNNKRASGIPDRFSGSKSGTSATLGITGLQTGDEADYYCVTWDRSLSAGVFGGGTKLTVL"
  reportedMeasurement: 350000
- binder: "GLP1R-3 (antibody, human IgG2, lambda, V domains shown, full length human IgG2; also called GLP1R01-3) VH: QVQLVESGGGVVQPGRSLRLSCAASGFTFSSYGMHWVRQAPGKGLEWVSFISYDESNKYYADSVKGRFTISRDNSKNTLYLQMNSLRAEDTAVYYCAKHMSMQEGAVTGEGQAAKEFIAWLVKGRVRADLVGDAFDVWGQGTLVTVSS VL: QSVLTQPPSVSAAPGQKVTISCSGSSSNIADNYVSWYQQLPGTAPKLLIYDNNKRPSGIPDRFSGSKSGTSATLGITGLQTGDEADYYCGTWDNYLGAGVFGGGTKLTVLG"
  reportedMeasurement: 224000
- binder: "GLP1R-222-073 (antibody, V domains shown, IgG) VH: QVQLVESGGGVVQPGRSLRLSCAASGFTFRDYGMHWVRQAPGKGLEWVAFIRYDEINKYYADSVKGRFTISRDNSKNTLYLQMNSLRAEDTAVYYCAKHMSMQEGAVTGEGQAAKEFIAWLVGGRVRADLVGDAFDVWGQGTLVTVSS VL: QSVLTQPPSVSAAPGQKVTISCSGSGSNIGNNDVSWYQQLPGTAPKLLIYDNNKRASGIPDRFSGSKSGTSATLGITGLQTGDEADYYCGTWDRGPNTGVFGGGTKLTVL"
  reportedMeasurement: 225000
- binder: "GLP1R-222-056 (antibody, V domains shown, IgG) VH: QVQLVESGGGVVQPGRSLRLSCAASGFPFSSYAMHWVRQAPGKGLEWVAVISYDRSNKYYADSVKGRFTISRDNSKNTLYLQMNSLRAEDTAVYYCAKHMSMQEGAVTGYGQAAKEFIAWLVKGFVRADLVGDAFDVWGQGTLVTVSS VL: QSVLTQPPSVSAAPGQKVTISCSGSSSNIGSNYISWYQQLPGTAPKLLIYDNDKRPAGIPDRFSGSKSGTSATLGITGLQTGDEADYYCGTWDTSLSVGEFGGGTKLTVL"
  reportedMeasurement: 217000
- binder: "GLP1R-222-081 (antibody, V domains shown, IgG) VH: QVQLVESGGGVVQPGRSLRLSCAASGFTFDNYALHWVRQAPGKGLEWVALISYDAGNKYYADSVKGRFTISRDNSKNTLYLQMNSLRAEDTAVYYCAKHMSMQEGAVTGEGQAAKEFIAWLVKGFVRADLVGDAFDVWGQGTLVTVSS VL: QSVLTQPPSVSAAPGQKVTISCSGSSSNIGSDYVSWYQQLPGTAPKLLIYDNNKRSSGIPDRFSGSKSGTSATLGITGLQTGDEADYYCGTWDESLRSWVFGGGTKLTVL"
  reportedMeasurement: 221000
- binder: "GLP1R-222-014 (antibody, V domains shown, IgG) VH: QVQLVESGGGVVQPGRSLRLSCAASGFAFSNYGMHWVRQAPGKGLEWVSFISYDESNKYYADSVKGRFTISRDNSKNTLYLQMNNLRAEDTAVYYCAKHMSMQEGAVTGEWQAAKEFIAWLVKGRVRADLVGDAFDVWGQGTLVTVSS VL: QSVLTQPPSVSAAPGQKVTISCSGSSSNIGNHDVSWYQQLPGTAPKLLIYDNNKRHSGIPDRFSGSKSGTSATLGITGLQTGDEADYYCGTWDTSLSAGVFGGGTKLTVL"
  reportedMeasurement: 237000
- binder: "GLP1R-222-082 (antibody, V domains shown, IgG) VH: QVQLVESGGGVVQPGRSLRLSCAASGFTFSAYSMHWVRQAPGKGLEWVALISYDATNKYYADSVKGRFTISRDNSKNTLYLQMNSLRAEDTAVYYCAKHMSMQEGAVTGEFQAAKEFIAWLVKGRVRADLVGDAFDVWGQGTLVTVSS VL: QSVLTQPPSVSAAPGQKVTISCSGSSSNIGSKYVSWYQQLPGTAPKLLIYDNNKRPSGIPDRFSGSKSGTSATLGITGLQTGDEADYYCGTWDISPSAWVFGGGTKLTVL"
  reportedMeasurement: 224000
